- system: T1, full-length human Tau (Tau441; 2N4R), recombinant (human, UniProt P10636 1-758)
- T1 construct: made in E. coli, His6-Smt3 tag removed; biotinylated through amines for Octet and phage work; also called r-Tau; recombinant Tau
- T1 sequence (P10636 other isoform, or with tags, fused parts or gaps limits assumed): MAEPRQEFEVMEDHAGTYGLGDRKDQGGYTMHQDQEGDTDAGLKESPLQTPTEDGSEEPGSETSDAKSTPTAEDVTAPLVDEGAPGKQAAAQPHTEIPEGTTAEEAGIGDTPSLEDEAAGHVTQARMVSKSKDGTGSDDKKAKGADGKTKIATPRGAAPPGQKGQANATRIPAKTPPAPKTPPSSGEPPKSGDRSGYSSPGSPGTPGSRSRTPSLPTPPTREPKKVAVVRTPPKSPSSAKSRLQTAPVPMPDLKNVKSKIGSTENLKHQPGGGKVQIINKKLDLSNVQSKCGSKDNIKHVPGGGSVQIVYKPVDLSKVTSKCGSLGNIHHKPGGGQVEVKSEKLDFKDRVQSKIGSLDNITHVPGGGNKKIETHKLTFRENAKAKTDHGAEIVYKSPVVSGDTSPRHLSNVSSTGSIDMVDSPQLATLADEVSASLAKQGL
- protocol_notes: SPR Biacore
- Description: IgG was purified with protein A affinity chromatography. The affinity of each hulC7 IgG variant for r-Tau was determined by surface plasmon resonance using a Biacore™ T200 instrument. Biacore™ Series S CM5 sensor chips were immobilized with monoclonal mouse anti-human IgG (Fc) antibody (Human antibody capture kit from GE Healthcare). […] Each sample was analyzed with 3-minute association and 10-minute dissociation. […]
metric: kon (M⁻¹ s⁻¹)
Field: numeric (M⁻¹ s⁻¹). Do not append units.

binder	test_result
Clone with L1_3-1 (antibody, V domains shown, based on hu1C7.v2) VH: EVQLLESGGGLVQPGGSLRLSCAASGFTFSSYGMSWVRQAPGKGLEWVASISGDGGSYIHYADSVKGRFTISRDNSKNTLYLQMNSLRAEDTAVYYCARLPYWGQGTLVTVSS VL: DIVMTQSPDSLAVSLGERATINCKSSQSLVRSGTQKDYLVWYQQKPGQPPKLLIYWASTRESGVPDRFSGSGSGTDFTLTISSLQAEDVAVYYCQQYNSYPLTFGQGTKVEIK	1.01e+06
Clone with H1_4-3 (antibody, V domains shown, based on hu1C7.v2) VH: EVQLLESGGGLVQPGGSLRLSCAASGFMFSGPGMSWVRQAPGKGLEWVASISGDGGSYIHYADSVKGRFTISRDNSKNTLYLQMNSLRAEDTAVYYCARLPYWGQGTLVTVSS VL: DIVMTQSPDSLAVSLGERATINCKSSQSLLNSGNQKNYLTWYQQKPGQPPKLLIYWASTRESGVPDRFSGSGSGTDFTLTISSLQAEDVAVYYCQQYNSYPLTFGQGTKVEIKR	404000
Clone with H1_4-1 (antibody, V domains shown, based on hu1C7.v2) VH: EVQLLESGGGLVQPGGSLRLSCAASGFTFSGPGMSWVRQAPGKGLEWVASISGDGGSYIHYADSVKGRFTISRDNSKNTLYLQMNSLRAEDTAVYYCARLPYWGQGTLVTVSS VL: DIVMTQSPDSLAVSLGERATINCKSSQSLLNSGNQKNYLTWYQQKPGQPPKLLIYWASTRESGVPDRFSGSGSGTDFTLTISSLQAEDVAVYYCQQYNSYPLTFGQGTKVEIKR	172000
Clone with L1_3-3 (antibody, V domains shown, based on hu1C7.v2) VH: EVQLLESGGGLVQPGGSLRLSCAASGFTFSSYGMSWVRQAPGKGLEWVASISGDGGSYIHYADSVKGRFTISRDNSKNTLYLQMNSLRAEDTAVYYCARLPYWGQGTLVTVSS VL: DIVMTQSPDSLAVSLGERATINCKSSQSLHYSGTQKDYLVWYQQKPGQPPKLLIYWASTRESGVPDRFSGSGSGTDFTLTISSLQAEDVAVYYCQQYNSYPLTFGQGTKVEIK	2.72e+06
Clone with H2_5 (antibody, V domains shown, based on hu1C7.v2) VH: EVQLLESGGGLVQPGGSLRLSCAASGFTFSSYGMSWVRQAPGKGLEWVASISGDGGSYIHYASSVKGRFTISRDNSKNTLYLQMNSLRAEDTAVYYCARLPYWGQGTLVTVSS VL: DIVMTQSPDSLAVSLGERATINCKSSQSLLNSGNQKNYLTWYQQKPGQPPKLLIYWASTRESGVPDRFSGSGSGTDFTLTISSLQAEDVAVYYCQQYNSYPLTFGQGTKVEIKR	465000

What kon value was documented for this binder, Clone with H2_3 (antibody, V domains shown, based on hu1C7.v2) VH: EVQLLESGGGLVQPGGSLRLSCAASGFTFSSYGMSWVRQAPGKGLEWVASISGSGGSYIHYADSVKGRFTISRDNSKNTLYLQMNSLRAEDTAVYYCARLPYWGQGTLVTVSS VL: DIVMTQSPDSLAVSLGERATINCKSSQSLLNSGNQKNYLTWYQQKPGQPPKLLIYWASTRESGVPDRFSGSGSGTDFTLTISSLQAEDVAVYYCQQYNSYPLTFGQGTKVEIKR ? 422000

What kon value was documented for this binder, Clone with L1_3-7 (antibody, V domains shown, based on hu1C7.v2) VH: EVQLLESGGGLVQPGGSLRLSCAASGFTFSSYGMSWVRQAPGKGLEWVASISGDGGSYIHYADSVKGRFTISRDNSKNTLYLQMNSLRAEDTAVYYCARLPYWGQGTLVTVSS VL: DIVMTQSPDSLAVSLGERATINCKSSQSLHKSGTQKDYLVWYQQKPGQPPKLLIYWASTRESGVPDRFSGSGSGTDFTLTISSLQAEDVAVYYCQQYNSYPLTFGQGTKVEIK ? 1.12e+06

What kon value was documented for this binder, Clone with H1_2-5 (antibody, V domains shown, based on hu1C7.v2) VH: EVQLLESGGGLVQPGGSLRLSCAASGFTFSKVGTSWVRQAPGKGLEWVASISGDGGSYIHYADSVKGRFTISRDNSKNTLYLQMNSLRAEDTAVYYCARLPYWGQGTLVTVSS VL: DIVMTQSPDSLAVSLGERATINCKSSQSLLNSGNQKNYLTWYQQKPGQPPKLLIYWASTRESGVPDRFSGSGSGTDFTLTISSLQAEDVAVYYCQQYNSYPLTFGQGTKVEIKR ? 249000

What kon value was documented for this binder, Clone with L1_3-10 (antibody, V domains shown, based on hu1C7.v2) VH: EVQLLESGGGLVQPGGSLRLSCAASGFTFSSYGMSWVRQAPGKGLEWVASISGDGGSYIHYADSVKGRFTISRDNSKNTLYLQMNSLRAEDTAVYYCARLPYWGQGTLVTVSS VL: DIVMTQSPDSLAVSLGERATINCKSSQSLHRSGTQKNYLVWYQQKPGQPPKLLIYWASTRESGVPDRFSGSGSGTDFTLTISSLQAEDVAVYYCQQYNSYPLTFGQGTKVEIK ? 937000

What kon value was documented for this binder, Clone with L1_3-5 (antibody, V domains shown, based on hu1C7.v2) VH: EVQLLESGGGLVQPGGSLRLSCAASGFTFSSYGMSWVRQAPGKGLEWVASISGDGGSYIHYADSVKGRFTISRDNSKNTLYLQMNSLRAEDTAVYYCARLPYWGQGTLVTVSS VL: DIVMTQSPDSLAVSLGERATINCKSSQSLHMSGTQKDYLVWYQQKPGQPPKLLIYWASTRESGVPDRFSGSGSGTDFTLTISSLQAEDVAVYYCQQYNSYPLTFGQGTKVEIK ? 1.05e+06
